- measured.on: SARS-CoV-2 spike RBD (Wuhan-Hu-1) (Severe acute respiratory syndrome …, UniProt P0DTC2)
- experiment.notes: SPR
readout: Kd (nM)
A number alone suffices; assume nM.

| binder | unit.text | quantitative.readout |
| --- | --- | --- |
| COVIC-66 (antibody) QVQLQESGGGLVQAGGSLRLSCAASGRTFSEYAMGWFRQAPGKEREFVATISWSGGSTYYTDSVKGRFTISRDNAKNTVYLQMNSLKPDDTAVYYCAAAGLGTVVSEWDYDYDYWGQGTQVTVSSGGSGGSQVQLQESGGGLVQAGGSLRLSCVASGSIFSINAMDWYRQAPGKQRELVAGITSGGSTNYGDFVKGRFTISRDNAKNTVYLQMDSLKPEDTAVYYCAAEVGGWGPPRPDYWGHGTQVTVSSGGGGSGGGGSEPKSCDKTHTCPPCPAPELLGGKKKPLDGEYFTLQIRGRERFEMFRELNEALELKDAQAGKEPG | nM | 140 |

Now, please, on to the next binder.
Consider the binder COVIC-297 (antibody, V domains shown) VH: EVLLVESGGGLIQPGGSLRLSCAASGLTVSSNYMSWVRQAPGKGLEWVSVIYSGGSTFYADSVKGRFTISRDNSKNTLYLQMNSLRAEDTAVYYCARDLVTWGLDYWGQGTLVTVSS VL: AIQLTQSPSSLSASVGDRVTITCRASQGISSYLAWYQQKPGKAPKLLIYAASTLQSGVPSRFSGSGSGTDFTLTISSLQPEDFATYYCQLLNTDPITFGQGTRLEIK and give its recorded Kd.
0.271
